Just for reference, PubChem BioAssay AID1246 is where these values come from.

The entries below come with measured inhibition values attached.
- TEST METHOD NOTES: E-selectin induction blockers in HUVEC – imaging, immunofluorescence, high content, primary screen (AID 1246);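 note: 0% = TNF-stimulated DMSO wells and 100% = unstimulated control wells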
- RECORDED CONDITIONS: HUVEC TNFa-induced E-selectin immunofluorescence, at 2 µM, stronger effect = higher value
The campaign covered roughly 120,000 compounds. About 840 (0.7%) were called active. This excerpt belongs to a sample that is enriched for actives.
Give just the number in %; leave the unit off.

CCN(CC)c1ccc2c(Nc3ccccc3)c(C=O)c(=O)oc2c1 -20.2
Cc1ccc(-n2c(C)cc(C(=O)CN3C(=O)C(=O)N(C4CCCC4)C3=O)c2C)cc1 -16.5
CCOC(=O)c1sc(NC(=O)CSc2nnc(-c3ccco3)o2)c(C(=O)OCC)c1C -40.2
Fc1ccccc1Cn1cnc(NC(=S)NCCc2ccccc2)n1 -14.1
COc1ccc(NC(=O)c2c(C)oc3c2CCCC3)cc1 60.9

Now look at this entry.
[in] Name the recorded inhibition of the item CCCOc1ccc(C(=O)NCCc2ccccc2)cc1 in your answer.
[out] -42.2
